experiment: Bioavailability / pharmacokinetic study in male rats (IV and PO); format: in vivo, rat; conditions: plasma; pro-drug itself, observed when dosed as pro-drug; male rat, PO 5 mg/kg
reported_property: Cmax (nM)

[I] CC(C)[C@H](N)C(=O)N[C@H]1CN[C@@](CCCCB(O)O)(C(=O)O)C1
[II] CC(C)(O)[C@H](N)C(=O)N[C@H]1CN[C@@](CCCCB(O)O)(C(=O)O)C1
Consider I and II . Which of these has its Cmax at a higher number? When you have decided, please share the label of that item.
II
(II: 1800 nM, I: 600 nM)

* * *

assay: Bioavailability / pharmacokinetic study in male rats (IV and PO); type: in vivo, rat; settings: male, rat, plasma, iv
reported_property: clearance (mL/min/kg)
Numeric answer only, unit mL/min/kg assumed.

Quick check: clearance of N[C@H]1CN[C@@](CCCCB(O)O)(C(=O)O)C1 ?
8.9

* * *

assay: Bioavailability / pharmacokinetic study in male rats (IV and PO); format: in vivo, rat; conditions: plasma; pro-drug itself, observed when dosed as pro-drug; male rat, PO 5 mg/kg
reported_property: Cmax (nM)

CC(C)[C@H](N)C(=O)N[C@H]1CN[C@]2(CCCCB(O)OC2=O)C1 :: 330
NCC(=O)N[C@H]1CN[C@@](CCCCB(O)O)(C(=O)O)C1 :: 460
N[C@@H](CO)C(=O)N[C@H]1CN[C@@](CCCCB(O)O)(C(=O)O)C1 :: 430
